Test system: HCV replicon GT4
Test: Cell-based HCV replicon assay, GT4
Conditions: Hepatitis C virus, GT4, 72 h; replicon RNA level by real-time PCR, 3 days
Recorded EC90 for the following compounds
Please respond with the number in pM and leave the unit unwritten.

Input "COC(=O)N[C@H](C(=O)N1CCC[C@H]1c1ncc(-c2cc(F)c3c(c2)O[C@@H](c2ccc(C4CC4)s2)n2c-3cc3cc(-c4cnc([C@@H]5C[Si](C)(C)CN5C(=O)[C@@H](NC(=O)OC)C(C)C)[nH]4)ccc32)[nH]1)C(C)C" . Output EC90: 1.5

As a next step, examine the compound that follows.
Input "COC(=O)N[C@H](C(=O)N1CCC[C@H]1c1ncc(-c2ccc3c(c2)cc2n3[C@H](c3cnc(C4CC4)s3)Oc3cc(-c4cnc([C@@H]5C[Si](C)(C)CN5C(=O)[C@@H](NC(=O)OC)C(C)C)[nH]4)cc(F)c3-2)[nH]1)C(C)C" . Output EC90: 1.35
